Would you mind telling me the reported pIC50 of each entry?
Assay: CellTiter-Blue cell viability assay, cell toxicity in PBMC from healthy volunteers
Format: cell-based
Conditions: human, 50 000 cells/well, cultured 24, 48 and 72 h (time of the IC50 not stated), % cytotoxicity vs 0.2% DMSO
Answers are plain numbers, as −log10 of the molar value.

Worked examples, 3 compounds total:
| chemical-string | numeric-readout |
| --- | --- |
| CNC(=O)COc1ccc(-c2nc3c(N[C@H]4CCN(Cc5ccc(F)c(F)c5)C4)c(Cl)cnc3[nH]2)cc1 | 4.75 |
| CN(C)C(=O)COc1ccc(-c2nc3c(N[C@H]4CCN(Cc5ccccc5)C4)c(Cl)cnc3[nH]2)cc1 | 4.86 |
| Cc1ccc(CN2CCC(Nc3c(Cl)cnc4[nH]c(-c5ccc(OCC(=O)NCC(C)(C)N(C)C)cc5)nc34)CC2)cc1 | 4.85 |

Ask | Look at this compound and give its reported pIC50. CNC(=O)COc1ccc(-c2nc3c(NC4CCN(CCOc5ccccc5)CC4)c(Cl)cnc3[nH]2)cc1
Reply | 4.87
